Values from the supplement of paper PMC13380429

Tested on: Vero E6 infected with SARS-CoV-2
Test: inhibition of SARS-CoV-2 cytopathic effect; higher = more antiviral protection, active = above 15
Conditions: 8.33 nM; 48 h
readout kind: inhibition of SARS-CoV-2 cytopathic effect (%)
# output: bare number, implied unit %

Worked set:
# CO[C@H]1/C=C/O[C@@]2(C)Oc3c(C)c(O)c4c(O)c(c5c(nc6cc(C)ccn65)c4c3C2=O)NC(=O)/C(C)=C\C=C\[C@H](C)[C@H](O)[C@@H](C)[C@@H](O)[C@@H](C)[C@H](OC(C)=O)[C@@H]1C [rifaximin] with Vero E6 infected with SARS-CoV-2: inhibition of SARS-CoV-2 cytopathic effect is -2.16

# O=C1NC(O)CCN1[C@@H]1O[C@H](CO)[C@@H](O)[C@H]1O (stereo partly specified) [tetrahydrouridine] with Vero E6 infected with SARS-CoV-2: inhibition of SARS-CoV-2 cytopathic effect is 1.19

# CN(N=O)C(=O)N[C@@H](C=O)[C@@H](O)[C@H](O)[C@H](O)CO [streptozotocin] with Vero E6 infected with SARS-CoV-2: inhibition of SARS-CoV-2 cytopathic effect is -2.25

# Cc1cnc(Nc2ccc(OCCN3CCCC3)cc2)nc1Nc1cccc(S(=O)(=O)NC(C)(C)C)c1 [fedratinib] with Vero E6 infected with SARS-CoV-2: inhibition of SARS-CoV-2 cytopathic effect is 1.42

# `Cc1cc(-c2cc(OC(=O)c3ccccc3)ccc2Cl)cc2nnc(Nc3ccc(OCCN4CCCC4)cc3)nc12` with Vero E6 infected with SARS-CoV-2: inhibition of SARS-CoV-2 cytopathic effect is 2.55

Consider the additional compound presented here.
# CC(=O)[C@@]12O[C@](C)(c3ccccc3)O[C@@H]1C[C@H]1[C@@H]3CCC4=CC(=O)CC[C@]4(C)[C@H]3CC[C@@]12C [algestone-acetophenide] with Vero E6 infected with SARS-CoV-2: inhibition of SARS-CoV-2 cytopathic effect is 0.88

====

System: Vero E6 infected with SARS-CoV-2
Assay: inhibition of SARS-CoV-2 cytopathic effect; higher = more antiviral protection, active = above 15
Conditions: 833.33 nM; 48 h
Catalogue of compounds with associated inhibition of SARS-CoV-2 cytopathic effect
# output: bare number, implied unit %

Worked set:
# C=CCCCCCCCCC(=O)[O][Zn][O]C(=O)CCCCCCCCC=C [zinc-undecylenate] with Vero E6 infected with SARS-CoV-2: inhibition of SARS-CoV-2 cytopathic effect is 0.72

# `CCNC(=O)c1n[nH]c(-c2cc(Cl)c(O)cc2O)c1-c1ccc(OC)cc1` with Vero E6 infected with SARS-CoV-2: inhibition of SARS-CoV-2 cytopathic effect is -3.38

# CNC(=N)NC(=O)Nc1c(C)cccc1C [lidamidine] with Vero E6 infected with SARS-CoV-2: inhibition of SARS-CoV-2 cytopathic effect is 3.62

# COc1cc(NS(=O)(=O)c2ccc(N)cc2)ncn1 [sulfamonomethoxine] with Vero E6 infected with SARS-CoV-2: inhibition of SARS-CoV-2 cytopathic effect is 1.1

# `Cc1n[nH]c2ccc(-c3cncc(OC[C@@H](N)Cc4ccccc4)c3)cc12` with Vero E6 infected with SARS-CoV-2: inhibition of SARS-CoV-2 cytopathic effect is 4.63

# `CSc1nc(NC2CCCC2)c([N+](=O)[O-])c(NC2CCCC2)n1` with Vero E6 infected with SARS-CoV-2: inhibition of SARS-CoV-2 cytopathic effect is -0.4

# CC(=O)N(c1onc(C)c1C)S(=O)(=O)c1ccc(N)cc1 [sulfisoxazole-acetyl] with Vero E6 infected with SARS-CoV-2: inhibition of SARS-CoV-2 cytopathic effect is -0.91

# CCS(=O)(=O)N1CC(CC#N)(n2cc(-c3ncnc4[nH]ccc34)cn2)C1 [baricitinib] with Vero E6 infected with SARS-CoV-2: inhibition of SARS-CoV-2 cytopathic effect is 0.06

Consider the additional compound presented here.
# CN(C/C=C/C#CC(C)(C)C)Cc1cccc2ccccc12 [terbinafine] with Vero E6 infected with SARS-CoV-2: inhibition of SARS-CoV-2 cytopathic effect is 6.27
